molecular target: T1, CD28 (detection antigen of the BLI assay) (human, UniProt P10747 19-152, limits assumed); test: BLI (GATOR); antibody loaded at 30 nM, antigen 300-37.5 nM
T1 construct: also called the antigen
koff values, listed per item
Write the value in s⁻¹ as a bare number.

Worked examples, 4 binders total:
## Task What measured koff goes with huVH1huVL1 (antibody, human IgG1, kappa, V domains shown, also called huVH1VL1; 9.3h11) VH: QVKLQESGPGLVKPSETLSITCTVSGFSLSDYGVHWVRQSPGKGLEWLGVIWAGGGTNYNSALMSRKTISKDNSKSQVFLKMSSLTAADTAVYYCARDKGYSYYYSMDYWGQGTTVTVSS VL: DIQLTQSPSSLSVSVGDRVTISCRASESVEYYVTSLMQWYQQKPGQAPKLLIFAASNVESGVPSRFSGSGSGTNFTLTISSVQEEDFAMYFCQQSRKVPYTFGGGTKLEIKR ?
## Result 0.000531

## Task What measured koff goes with huVH4huVL3 (antibody, human IgG1, kappa, V domains shown) VH: QVQLQESGPGLVKPSETLSLTCTVSGFSLSDYGVHWIRQPPGKGLEWIGVIWAGGGTNYNSALKSRVTISVDTSKNQVSLKLSSVTAADTAVYYCARDKGYSYYYSMDYWGQGTTVTVSS VL: DIQLTQSPSSLSASVGDRVTITCRASESVEYYVTSLMQWYQQKPGKAPKLLIFAASNVESGVPSRFSGSGSGTDFTLTISSLQPEDFATYYCQQSRKVPYTFGGGTKLEIKR ?
## Result 0.000966

## Task What measured koff goes with huVH4huVL2 (antibody, human IgG1, kappa, V domains shown) VH: QVQLQESGPGLVKPSETLSLTCTVSGFSLSDYGVHWIRQPPGKGLEWIGVIWAGGGTNYNSALKSRVTISVDTSKNQVSLKLSSVTAADTAVYYCARDKGYSYYYSMDYWGQGTTVTVSS VL: DIQLTQSPSSLSASVGDRVTITCRASESVEYYVTSLMQWYQQKPGKAPKLLIFAASNVESGVPSRFSGSGSGTNFTLTISSVQPEDFATYFCQQSRKVPYTFGGGTKLEIKR ?
## Result 0.000932

## Task What measured koff goes with huVH3huVL1 (antibody, human IgG1, kappa, V domains shown) VH: QVQLQESGPGLVKPSETLSLTCTVSGFSLSDYGVHWVRQSPGKGLEWIGVIWAGGGTNYNSALKSRKTISKDNSKSQVSLKLSSVTAADTAVYYCARDKGYSYYYSMDYWGQGTTVTVSS VL: DIQLTQSPSSLSVSVGDRVTISCRASESVEYYVTSLMQWYQQKPGQAPKLLIFAASNVESGVPSRFSGSGSGTNFTLTISSVQEEDFAMYFCQQSRKVPYTFGGGTKLEIKR ?
## Result 0.000727

With those in mind, consider the next binder.
## Task What measured koff goes with huVH2huVL3 (antibody, human IgG1, kappa, V domains shown) VH: QVQLQESGPGLVKPSETLSITCTVSGFSLSDYGVHWVRQPPGKGLEWLGVIWAGGGTNYNSALMSRKTISKDTSKNQVSLKMSSLTAADTAVYYCARDKGYSYYYSMDYWGQGTTVTVSS VL: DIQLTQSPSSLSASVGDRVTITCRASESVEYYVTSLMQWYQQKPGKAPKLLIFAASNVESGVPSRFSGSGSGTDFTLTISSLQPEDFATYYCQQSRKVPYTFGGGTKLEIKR ?
## Result 0.000635
